- assay.procedure: Water solubility at different pH values
- Type: physicochemical
- test.conditions: phosphate buffer, pH 9, aqueous buffer, thermodynamic from solid, pH 9.0; read-out: Saturated solubility
- Description: • 1.1 Preparation of reagent • Reagent: NaH2PO4·2H2O • 1.2 Preparation method […] A proper amount of a test compound was weighed, and the solution was added in small batches. […] The content of the compound in the solution was determined. […] 1 mg of the sample was weighed and added to a vial. […] The solubility of the compound of formula (I) was determined at different pH values.
readout.kind: solubility (mg/mL)
Answers are plain numbers, in mg/mL.

Task item: If you can, please state the reported solubility value of C[C@@H](OC[C@@]1(c2ccccc2)CC[C@]2(CCC(=O)N2)CN1C(=O)OCOP(=O)(O)O)c1cc(C(F)(F)F)cc(C(F)(F)F)c1 .
Reply: 21.4
